target: GST-Hu-p50 (Homo sapiens, UniProt P19838 7-356); test: protein-binding microarray (PBM); PBM: ~300 nM protein, 6 mM HEPES pH 7.8, 80 mM KCl, 0.5 mM EDTA, 0.5 mM EGTA, 6% glycerol, 35 ng/ul poly-dIdC, 1% milk, 1 h, room temperature; high values mean tight binding; conditions: dsDNA, one strand shown
Sequence (P19838 7-356): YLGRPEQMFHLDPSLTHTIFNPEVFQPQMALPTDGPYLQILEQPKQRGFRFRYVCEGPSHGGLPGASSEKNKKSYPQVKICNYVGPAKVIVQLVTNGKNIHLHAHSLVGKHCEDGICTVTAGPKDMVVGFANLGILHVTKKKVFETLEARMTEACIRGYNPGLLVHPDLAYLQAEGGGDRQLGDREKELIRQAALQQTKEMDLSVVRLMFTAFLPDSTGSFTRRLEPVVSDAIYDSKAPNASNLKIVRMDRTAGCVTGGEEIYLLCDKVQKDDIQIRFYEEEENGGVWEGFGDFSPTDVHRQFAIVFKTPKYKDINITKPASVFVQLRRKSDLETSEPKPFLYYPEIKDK
Lab note - cut at 3 z-score for binding signal: label 1 if strictly below, label 0 if not.

Worked cases, answers included:
- Input Sequence: "CCGATTAACATCACGGGACTCCCTGATGTTAATCGGGTCTTGATTCGCTTGACGCTGCTG"
  Label Value: "label 0"
- Input Sequence: "CCGATTAACATCAATTTTTCCCATGATGTTAATCGGGTCTTGATTCGCTTGACGCTGCTG"
  Label Value: "label 0"
- Input Sequence: "CCGATTAACATCAGTTCCCCCCATGATGTTAATCGGGTCTTGATTCGCTTGACGCTGCTG"
  Label Value: "label 0"

Input "CCGATTAACATCAAGGATTCCCGTGATGTTAATCGGGTCTTGATTCGCTTGACGCTGCTG" ; condition: binding signal strictly below 3 z-score. Does it hold?
label 1

Query "CCGATTAACATCAGGGGAAGGGATGATGTTAATCGGGTCTTGATTCGCTTGACGCTGCTG" next
label 0

Another sequence: "CCGATTAACATCAGGGGGACAAATGATGTTAATCGGGTCTTGATTCGCTTGACGCTGCTG"
label 0

Repeat with "CCGATTAACATCAGGGGAAAGCATGATGTTAATCGGGTCTTGATTCGCTTGACGCTGCTG"
label 0

And what about the sequence "CCGATTAACATCATGATGGGAAATGATGTTAATCGGGTCTTGATTCGCTTGACGCTGCTG" ?
label 1

Likewise for "CCGATTAACATCAATTCCCGTACTGATGTTAATCGGGTCTTGATTCGCTTGACGCTGCTG" ?
label 1

Follow-up entry: "CCGATTAACATCAGGCTTCCCCCTGATGTTAATCGGGTCTTGATTCGCTTGACGCTGCTG"
label 0

Continue with "CCGATTAACATCAGAAATCCCACTGATGTTAATCGGGTCTTGATTCGCTTGACGCTGCTG"
label 1

Same lookup for "CCGATTAACATCAGGGGTTCACCTGATGTTAATCGGGTCTTGATTCGCTTGACGCTGCTG" , please.
label 0

Also need "CCGATTAACATCACTGTTTTCCCTGATGTTAATCGGGTCTTGATTCGCTTGACGCTGCTG" , thanks.
label 0

Another sequence to look at: "CCGATTAACATCAAATAAATCCCTGATGTTAATCGGGTCTTGATTCGCTTGACGCTGCTG"
label 0

###

Molecular target: GST-Nv-NF-kB (Ser allele) (Nematostella vectensis, UniProt A7UNT2 2-411)
Sequence: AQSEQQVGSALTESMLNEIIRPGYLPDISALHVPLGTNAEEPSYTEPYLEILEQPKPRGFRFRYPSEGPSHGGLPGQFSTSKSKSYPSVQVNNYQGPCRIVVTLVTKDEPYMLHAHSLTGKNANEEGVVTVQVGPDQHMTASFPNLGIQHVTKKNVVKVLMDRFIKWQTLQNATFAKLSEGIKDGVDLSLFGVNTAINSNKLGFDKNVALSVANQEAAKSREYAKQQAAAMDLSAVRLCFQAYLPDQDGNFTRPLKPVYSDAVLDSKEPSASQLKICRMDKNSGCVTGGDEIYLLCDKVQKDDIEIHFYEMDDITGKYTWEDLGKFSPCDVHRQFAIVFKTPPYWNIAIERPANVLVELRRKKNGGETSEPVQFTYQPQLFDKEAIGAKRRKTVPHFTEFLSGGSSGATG
Assay: protein-binding microarray (PBM); PBM: ~300 nM protein, 6 mM HEPES pH 7.8, 80 mM KCl, 0.5 mM EDTA, 0.5 mM EGTA, 6% glycerol, 35 ng/ul poly-dIdC, 1% milk, 1 h, room temperature; Ap Aiptasia and Nv Nematostella (sea anemones) / Co Capsaspora / Aq Amphimedon (sponge) / Dm Drosophila / Hu human; RHD is the Rel homology domain; high values mean tight binding
Conditions: dsDNA, one strand shown
Observable: binding signal (z-score)
Please reply with the bare figure in z-score and do not write the unit itself.

For orientation, consider the following solved cases.
- Input Sequence: "CCGATTAACATCAGAACTTCCCATGATGTTAATCGGGTCTTGATTCGCTTGACGCTGCTG"
  Measured Value: 2.2
- Input Sequence: "CCGATTAACATCAGAATACCCCCTGATGTTAATCGGGTCTTGATTCGCTTGACGCTGCTG"
  Measured Value: 6.16
- Input Sequence: "CCGATTAACATCAGAGATCCCCCTGATGTTAATCGGGTCTTGATTCGCTTGACGCTGCTG"
  Measured Value: 6.44
- Input Sequence: "CCGATTAACATCAAGTTTACCCCTGATGTTAATCGGGTCTTGATTCGCTTGACGCTGCTG"
  Measured Value: 3.57

As a next step, examine the sequence that follows.
Which binding signal value belongs to "CCGATTAACATCACGCGTCTACCTGATGTTAATCGGGTCTTGATTCGCTTGACGCTGCTG" ?
1.34
